molecular target: human p38 kinase alpha (Homo sapiens, UniProt Q16539); construct: The coding region of the human p38α cDNA was obtained by PCR-amplification from RNA isolated from the human monocyte cell line THP.1; made in house; host or cells: E. coli DH10B; test: In vitro p38 kinase inhibition analysis (PHAS-I 32P-ATP or EGFRP 33P-ATP format); format: biochemical; settings: Table 1; compounds of Examples 1-28; one of two in vitro assay methods; read-out: p38α Kinase Inhibition (IC50 in μM)
Sequence (Q16539 whole entry): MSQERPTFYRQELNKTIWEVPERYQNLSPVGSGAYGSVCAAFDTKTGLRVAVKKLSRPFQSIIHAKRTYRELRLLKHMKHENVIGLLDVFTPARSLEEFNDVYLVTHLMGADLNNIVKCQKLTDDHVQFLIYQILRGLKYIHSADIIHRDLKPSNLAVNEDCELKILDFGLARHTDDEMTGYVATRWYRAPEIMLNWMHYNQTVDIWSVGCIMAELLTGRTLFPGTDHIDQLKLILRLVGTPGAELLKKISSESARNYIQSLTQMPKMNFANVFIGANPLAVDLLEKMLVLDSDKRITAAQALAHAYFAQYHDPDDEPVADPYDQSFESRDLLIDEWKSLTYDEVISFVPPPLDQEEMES
Structures can show the parent of a compound that is named as a salt.
observable: IC50 (µM)
Numbers only, in µM.

molecule	IC50 / µM
CN(C)CC(=O)OCC(=O)N1CCC(c2[nH]nc(-c3ccc(Cl)cc3)c2-c2ccncn2)CC1 [Example 25, Hydrochloride]	0.0118
C[C@@H](N[C@H]1CC[C@H](c2[nH]nc(-c3ccc(Cl)cc3)c2-c2ccncn2)CC1)c1ccc(F)cc1 [Example 5]	0.0232

Okay, next one:
Query: Please give the measured IC50 for this molecule: O=C(COP(=O)(O)O)N1CCC(c2[nH]nc(-c3ccc(Cl)cc3)c2-c2ccncn2)CC1 [Example 22]
Response: 0.00607

The reported measurements were obtained from patent US20040082551A1.
